- Assay Details: pKa' in 66% DMF
- Assay type: physicochemical
Quantity Measured: pKa
Numbers only.

Documented pKa of `CC[C@H]1C[C@@H]2CN(CCc3c([nH]c4ccccc34)[C@@](C(=O)OC)(c3cc4c(cc3OC)N(C=O)[C@H]3[C@@](O)(C(=O)OC)[C@H](OC(C)=O)[C@]5(CC)C=CCN6CC[C@]43[C@@H]65)C2)C1` : 9

Value source: patent US4143041A
